TARGET DESC: Casein kinase I isoform alpha (Homo sapiens, UniProt P48729)
TEST NAME: Inhibition of recombinant full length human GST-tagged CK1apha expressed in baculovirus using peptide as substrate after 3 hrs by kinase-glo luminescent assay
READOUT KIND: IC50 (µM)
Write the answer as a number in µM, unit excluded.

CC(C)n1cnc2c(NCc3cccc(C(F)(F)F)c3)ncnc21 : 12

Query: IC50; subject: CC(C1CC1)n1cnc2c(NCc3cccc(C(F)(F)F)c3)nc(NCCN(C)C)nc21 (configuration not stated)
1.8

###

Recorded IC50 for the following compounds
TARGET DESC: CDK7/Cyclin H/MNAT1 (Homo sapiens)
Sequence (P51946 whole entry): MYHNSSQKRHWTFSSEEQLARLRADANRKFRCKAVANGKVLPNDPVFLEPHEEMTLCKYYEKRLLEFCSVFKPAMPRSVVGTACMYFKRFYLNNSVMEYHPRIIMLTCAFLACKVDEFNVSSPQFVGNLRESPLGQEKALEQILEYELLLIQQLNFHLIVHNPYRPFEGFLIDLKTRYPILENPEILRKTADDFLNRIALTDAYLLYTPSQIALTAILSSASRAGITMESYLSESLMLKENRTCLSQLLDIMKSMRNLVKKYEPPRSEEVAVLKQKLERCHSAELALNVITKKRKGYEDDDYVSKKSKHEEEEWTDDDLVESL
Sequence (P50613 whole entry): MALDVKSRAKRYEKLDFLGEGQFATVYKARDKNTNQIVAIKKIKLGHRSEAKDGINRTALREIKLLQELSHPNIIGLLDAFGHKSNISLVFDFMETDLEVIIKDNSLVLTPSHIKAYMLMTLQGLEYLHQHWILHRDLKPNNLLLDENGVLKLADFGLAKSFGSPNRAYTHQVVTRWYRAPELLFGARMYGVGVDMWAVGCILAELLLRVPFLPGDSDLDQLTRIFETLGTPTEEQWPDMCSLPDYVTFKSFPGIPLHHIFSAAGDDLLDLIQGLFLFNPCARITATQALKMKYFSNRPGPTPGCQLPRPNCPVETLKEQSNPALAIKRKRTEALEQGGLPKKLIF
Sequence (P51948 whole entry, further chain): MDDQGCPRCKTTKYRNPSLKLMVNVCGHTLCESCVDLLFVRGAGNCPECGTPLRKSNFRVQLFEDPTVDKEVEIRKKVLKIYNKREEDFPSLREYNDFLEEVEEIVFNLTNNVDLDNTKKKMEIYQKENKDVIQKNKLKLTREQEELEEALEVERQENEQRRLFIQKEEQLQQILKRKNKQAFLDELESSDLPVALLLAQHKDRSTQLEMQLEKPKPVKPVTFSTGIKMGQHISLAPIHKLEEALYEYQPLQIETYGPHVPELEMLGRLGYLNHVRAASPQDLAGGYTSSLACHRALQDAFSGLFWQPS
TEST NAME: Inhibition of recombinant full length C-terminal human His-tagged CDK7/cyclin H/N-terminal MAT1 expressed in baculovirus expression system using Cdk7/9 peptide as substrate after 3 hrs by kinase-glo luminescent assay relative to control
Write the answer as a number in µM, unit excluded.

Query: IC50; subject: CC(C1CC1)n1cnc2c(NCc3cccc(C(F)(F)F)c3)nc(NCCN(C)C)nc21 (configuration not stated)
2.4

Query: IC50; subject: `CC(C)n1cnc2c(NCc3cccc(C(F)(F)F)c3)ncnc21`
32

###

TARGET DESC: Casein kinase I isoform alpha/delta (Homo sapiens) (UniProt P48730+P48729)
Sequence (P48729 whole entry, looked up, canonical isoform): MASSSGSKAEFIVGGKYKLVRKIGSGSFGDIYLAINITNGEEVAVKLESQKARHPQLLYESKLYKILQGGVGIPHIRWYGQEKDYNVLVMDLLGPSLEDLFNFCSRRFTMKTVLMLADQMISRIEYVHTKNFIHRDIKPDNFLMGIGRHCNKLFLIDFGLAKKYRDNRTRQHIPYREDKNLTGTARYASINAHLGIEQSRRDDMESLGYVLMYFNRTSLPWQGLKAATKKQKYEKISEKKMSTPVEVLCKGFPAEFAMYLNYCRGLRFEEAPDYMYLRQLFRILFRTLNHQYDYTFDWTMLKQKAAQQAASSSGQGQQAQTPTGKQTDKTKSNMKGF
Sequence (P48730 whole entry, looked up, canonical isoform): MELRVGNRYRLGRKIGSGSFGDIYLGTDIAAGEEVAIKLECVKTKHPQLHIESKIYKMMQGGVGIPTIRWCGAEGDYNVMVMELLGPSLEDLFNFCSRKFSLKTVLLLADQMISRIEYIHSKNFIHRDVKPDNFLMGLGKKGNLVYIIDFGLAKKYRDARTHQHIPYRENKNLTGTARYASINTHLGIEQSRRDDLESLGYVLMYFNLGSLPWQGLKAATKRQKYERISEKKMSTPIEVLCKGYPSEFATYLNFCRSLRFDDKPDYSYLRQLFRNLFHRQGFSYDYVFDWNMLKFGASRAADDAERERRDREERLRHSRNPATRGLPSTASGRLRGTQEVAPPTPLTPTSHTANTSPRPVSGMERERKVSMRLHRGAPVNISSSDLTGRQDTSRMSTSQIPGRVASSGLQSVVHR
TEST NAME: Inhibition of CK1alpha/CK1delta in human U2OS cells co-expressing Bmal1-dLuc assessed as modulation circadian clock by measuring drug level causing 1 hr circadian period lengthening measured every 100 mins by luminescence assay
Format: cell-based
Recorded EC for the following molecules

Study these solved cases before continuing.
CCCCOc1nc(NCc2cccc(C(F)(F)F)c2)c2ncn(C(C)C)c2n1 : 6.39 µM
CC(C)n1cnc2c(NCc3cccc(C(F)(F)F)c3)nc(N3CCCN(C)CC3)nc21 : 0.68 µM
CC(=O)N1CCN(c2nc(NCc3cccc(C(F)(F)F)c3)c3ncn(C(C)C)c3n2)CC1 : 1.03 µM

Query: EC; subject: `CC(C)n1cnc2c(NCc3cccc(C(F)(F)F)c3)nc(N3CCC(O)CC3)nc21`
1.98 µM

Query: EC; subject: `CC(C)n1cnc2c(NCc3cccc(C(F)(F)F)c3)nc(NCCN)nc21`
0.58 µM

Query: EC; subject: `CC(C)n1cnc2c(NCc3cccc(C(F)(F)F)c3)nc(NCCN3CCOCC3)nc21`
1.65 µM

Query: EC; subject: `CC(C)n1cnc2c(NCc3cccc(C(F)(F)F)c3)nc(NCCN(C)C)nc21`
0.09 µM

Query: EC; subject: `CC[C@H](CO)Nc1nc(NCc2ccccc2)c2ncn(C(C)C)c2n1`
0.96 µM

Query: EC; subject: CC(C1CC1)n1cnc2c(NCc3cccc(C(F)(F)F)c3)ncnc21 (stereo not given)
0.09 µM

###

TARGET DESC: Casein kinase I isoform alpha/delta (Homo sapiens) (UniProt P48730+P48729)
TEST NAME: Inhibition of CK1alpha/CK1delta in human U2OS cells co-expressing Bmal1-dLuc assessed as modulation circadian clock by measuring drug level causing 5 hrs circadian period lengthening measured every 100 mins by luminescence assay
Type: cell-based
Calls of active or inactive are those of the source. No cut-off for these calls is given here.
READOUT KIND: EC

CC[C@H](CO)Nc1nc(NCc2cccc(C(F)(F)F)c2)c2ncn(C(C)C)c2n1 : 3.76 µM
CC(C)n1cnc2c(NCc3cccc(C(F)(F)F)c3)nc(N3CCC(O)CC3)nc21 : 10.4 µM
CC(C)n1cnc2c(NCc3cccc(C(F)(F)F)c3)ncnc21 : 3.4 µM
CC(C)n1cnc2c(NCc3cccc(C(F)(F)F)c3)nc(NCCN(C)C)nc21 : 0.9 µM
CC(C1CC1)n1cnc2c(N(C)Cc3cccc(C(F)(F)F)c3)nc(NCCN(C)C)nc21 (stereo not given) : inactive
CC(C)n1cnc2c(NCc3cccc(C(F)(F)F)c3)nc(N3CCN(C)CC3)nc21 : 3.66 µM
CC(=O)N1CCN(c2nc(NCc3cccc(C(F)(F)F)c3)c3ncn(C(C)C)c3n2)CC1 : 5.7 µM
CC(C)n1cnc2c(NCc3cccc(C(F)(F)F)c3)nc(N3CCCN(C)CC3)nc21 : 5.8 µM
COCC1CCCN1c1nc(NCc2cccc(C(F)(F)F)c2)c2ncn(C(C)C)c2n1 (stereo not given) : inactive

Kindly review the next compound as well.
Query: EC; subject: `CC(C)n1cnc2c(NCc3cccc(C(F)(F)F)c3)nc(NCc3ccccc3)nc21`
inactive

Cited source: ChEMBL document CHEMBL4422662
